meta.source: patent US20180291110A1

Catalogue of koff values
Assay System: T1, human transferrin receptor (recombinant, for surface plasmon resonance) (human, UniProt P02786 89-760)
T1 construct: also called huTfR; human transferrin receptor-biotinylated
T1 sequence (P02786 89-760 limits assumed): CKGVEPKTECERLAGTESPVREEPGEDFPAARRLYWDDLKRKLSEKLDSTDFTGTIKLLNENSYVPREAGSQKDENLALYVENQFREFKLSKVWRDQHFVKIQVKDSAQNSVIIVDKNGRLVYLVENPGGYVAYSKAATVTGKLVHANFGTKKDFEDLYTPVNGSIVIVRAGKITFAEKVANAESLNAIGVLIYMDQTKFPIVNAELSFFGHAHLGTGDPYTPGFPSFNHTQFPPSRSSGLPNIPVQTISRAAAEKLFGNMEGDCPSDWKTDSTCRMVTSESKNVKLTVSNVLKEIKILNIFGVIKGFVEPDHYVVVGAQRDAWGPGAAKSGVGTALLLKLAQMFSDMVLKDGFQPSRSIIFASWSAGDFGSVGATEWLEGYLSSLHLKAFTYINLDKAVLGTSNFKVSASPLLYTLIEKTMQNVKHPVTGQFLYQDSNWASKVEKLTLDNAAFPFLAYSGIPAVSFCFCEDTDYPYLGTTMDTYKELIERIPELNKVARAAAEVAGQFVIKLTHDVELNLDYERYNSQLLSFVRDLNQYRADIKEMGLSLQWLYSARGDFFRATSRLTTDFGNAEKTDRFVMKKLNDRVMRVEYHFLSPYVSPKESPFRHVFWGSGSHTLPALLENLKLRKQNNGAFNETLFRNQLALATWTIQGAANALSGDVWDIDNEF
Test Description: SPR 25C
I only need the number, in s⁻¹, no unit after it.

Past entries and their recorded results:
Binder	Property Label	Output Unit	Test Value
2/99 VH7/VL4 (antibody, V domains shown) VH: QQLVETGGGLIQPGGSLRLSCAASGFSLSSYAMSWVRQAPGKGLEWIGYIWSGGSTDYASWAKGRFTISRDNSKNTLYLQMNSLRAEDTAVYYCARRYGTSYPDYGDANGFDPWGQGTLVTVSS VL: AYQMTQSPSSLSASVGDRVTITCRASQSISSYLSWYQQKPGKAPKLLIYRASTLASGVPSRFSGSGSGTDFTLTISSLQPEDFATYYCQQSYSSSNVDNTFGGGTKVEIK	koff	s⁻¹	0.00125
2/99 VH1/VL15 (antibody, V domains shown) VH: VQLVETGGGLIQPGGSLRLSCAASGFSLSSYAMSWVRQAPGKGLEWVGYIWSGGSTDYADSVKGRFTISRDNSKNTLYLQMNSLRAEDTAVYYCARRYGTSYPDYGDANGFDPWGQGTLVTVSS VL: DIVMTQSPDSLAVSLGERATINCKSSQSISSYLIWYQQKPGQPPKLLIYRASTLASGVPDRFSGSGSGTDFTLTISSLQAEDVAVYYCQQAYSSSNVDNTFGGGTKVEIK	koff	s⁻¹	0.00669

Next, consider the following binder.
Would you mind telling me what koff value was observed for 2/99 VH5/VL2 (antibody, V domains shown) VH: QSMEETGGGLIQPGGSLRLSCAASGFSLSSYAMSWVRQAPGKGLEWVGYIWSGGSTDYADSVKGRFTISRDNSKNTLYLQMNSLRAEDTAVYYCARRYGTSYPDYGDANGFDPWGPGTLVTVSS VL: DIQMTQSPSSLSASVGDRVTITCRASQSISSYLNWYQQKPGKAPKLLIYRASTLASGVPSRFSGSGSGTDFTLTISSLQPEDFATYYCQQSYSSSNVDNTFGGGTKVEIK ?
0.00241
